Target: c-Src SH2;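 also: peptide library displayed on the E. coli surface as eCPX fusions, selected cells deep-sequenced, score is each peptide's frequency after selection divided by its frequency in the input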
Assay: SH2 binding enrichment of the phosphorylated peptide, bacterial display (enrichment ratio); higher = better substrate or ligand; peptides without Tyr show the background
PARAMETER: SH2 binding enrichment

[
  {
    "CHAIN_SEQUENCE": "SGSIHYSRVPR [GLB1_Y57]",
    "SH2 binding enrichment": 0.861
  },
  {
    "CHAIN_SEQUENCE": "SDGKRYRVPSD [HHIPL2_Y395_H391D]",
    "SH2 binding enrichment": 0.57
  }
]

A. KRIKSYNQEND [RPGRIP1L_Y448_L447S]
B. SSVAGYACLAY [MVD_Y131_A128V]
C. TDECEYDELIV [TGM1_Y136_Y134C]
D. LKALHYMVQTS [SACS_Y3367]
Query: # sort list by recorded SH2 binding enrichment, greatest to least Please reply with the labels ordered as requested. Many thanks.
Reply: B, D, A, C

I. FFDANYDGKEF [MAPRE2_Y162_YF]
II. FRPPFYHRNCM [HGD_Y334_YF]
III. FKNGDYSEVMK [LCT_Y1638_N1639S]
Query: Rank ascending by SH2 binding enrichment. Please reply with the labels ordered as requested. Many thanks.
Reply: I, II, III
(I: 0.501, II: 1, III: 1.84)

a. PVKSEYPSIKL [NPC2_Y119]
b. EREFKYGAHKF [OAT_Y50_N54K_YF]
c. PGDGEYFTLQI [TP53_Y327_L323G]
Query: # sort list by recorded SH2 binding enrichment, greatest to least Please reply with the labels ordered as requested. Many thanks.
Reply: a, b, c

1. PELIDYGKLWK [ACTN1_Y193_R197W]
2. VIKDKYPKARY [APTX_Y209]
Query: Which record would sort first by descending SH2 binding enrichment, 1 or 2 ? State your choice using its label.
Reply: 2

These entries and their values trace back to the supplement of paper PMC10065799.
